Target: Histone deacetylase 7 (Homo sapiens)
Sequence (Q8WUI4 whole entry): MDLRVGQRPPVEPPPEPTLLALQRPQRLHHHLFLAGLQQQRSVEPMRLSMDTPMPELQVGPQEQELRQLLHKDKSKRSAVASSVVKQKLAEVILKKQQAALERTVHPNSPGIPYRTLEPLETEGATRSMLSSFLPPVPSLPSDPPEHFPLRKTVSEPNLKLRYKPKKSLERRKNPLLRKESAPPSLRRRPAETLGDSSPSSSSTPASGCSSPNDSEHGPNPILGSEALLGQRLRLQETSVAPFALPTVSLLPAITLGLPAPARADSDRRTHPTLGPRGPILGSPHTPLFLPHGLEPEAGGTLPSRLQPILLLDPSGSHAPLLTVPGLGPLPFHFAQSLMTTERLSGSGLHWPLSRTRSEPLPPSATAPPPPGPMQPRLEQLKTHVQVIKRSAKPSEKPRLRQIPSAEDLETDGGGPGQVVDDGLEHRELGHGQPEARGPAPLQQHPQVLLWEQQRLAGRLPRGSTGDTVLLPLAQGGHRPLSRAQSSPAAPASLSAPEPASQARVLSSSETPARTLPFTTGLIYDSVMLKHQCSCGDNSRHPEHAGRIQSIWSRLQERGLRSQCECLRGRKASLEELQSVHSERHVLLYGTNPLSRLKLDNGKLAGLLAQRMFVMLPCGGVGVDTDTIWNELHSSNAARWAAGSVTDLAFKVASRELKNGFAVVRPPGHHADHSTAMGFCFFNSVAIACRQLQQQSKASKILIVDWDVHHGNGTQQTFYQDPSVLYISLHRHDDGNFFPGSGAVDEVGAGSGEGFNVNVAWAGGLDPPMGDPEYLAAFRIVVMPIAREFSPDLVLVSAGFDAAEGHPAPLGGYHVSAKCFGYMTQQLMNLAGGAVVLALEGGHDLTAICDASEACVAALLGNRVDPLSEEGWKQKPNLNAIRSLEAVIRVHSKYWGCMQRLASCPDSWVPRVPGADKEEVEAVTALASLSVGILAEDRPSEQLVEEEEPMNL
pIC50: −log10 of the molar value.
pIC50 listing for selected molecules.

Nc1nc2ccc(-c3cn(Cc4ccc(-c5nnc(C(F)F)o5)cc4)nn3)cc2s1
< 4.52

Consider now this further molecule.
What value of measured pIC50 is listed for Nc1ccc(-c2cn(Cc3ccc(-c4nnc(C(F)F)o4)c(F)c3)nn2)cn1 ?
< 4.52

Reference source for all entries: BindingDB's records for patent US20230286970
